system: MDA-MB-468 breast; assay: NCI tumour cell line growth inhibition, 48 h
Quick reference: TGI of the listed items.
Give the number; µM is assumed, so skip it.

Example compounds with recorded TGI:
smiles_notation	unit_abbreviation	reading
NC(=O)OCCn1cc(-c2nc(-c3c[nH]c4ncccc34)cs2)c2ccccc21	µM	3.8
C[C@H]1[C@H](C)CC[C@]2(C(=O)Nc3ccc4ncccc4c3)CC[C@]3(C)C(=CC[C@@H]4[C@@]5(C)CCCNC(C)(C)[C@@H]5CC[C@]43C)[C@H]12	µM	3.45
C#COc1cccc(Nc2c(C#N)cnc3ncc(NC(=O)CCl)cc23)c1	µM	60.3
C=C1C(=O)O[C@H]2[C@H]1CC/C(COC(=O)/C=C\C(=O)NCc1ccc(Cn3c(=O)sn(CCCC)c3=O)cc1)=C\CC[C@@]1(C)O[C@@H]21	µM	1.39
O=C(Nc1ccc(-n2ccc3c(NC(=O)c4ccccc4)nccc32)cc1)Nc1ccc(Cl)c(Cl)c1	µM	2.96

Here's the next entry for you.
Item `CCn1c(=O)c2c(=O)c3c4c(oc3oc2c2ccccc21)C(=O)c1ccccc1C4=O` : provide TGI 0.701
